Experimental conditions: rat, in vivo, iv, 2 mg/kg
Bridge positions count the residues as written; N and C are the ends. Square brackets hold non-standard residues; d marks the D form. Peptide text beside a SMILES is read from it. * marks the point of attachment. Piperazin2one(3S-Bu,6R-CO) = CCCC[C@@H]1NC[C@H](C(=O)*)NC1=O; X1 = N=C(N)NCCC[C@H]1C(=O)N[C@@H](C(N)=O)CN1*; X3 = CC(C)C[C@@H]1NC[C@H](C(=O)*)NC1=O; Nle = CCCC[C@H](N)C(=O)O; Orn = NCCC[C@H](N)C(=O)O
Property measured: AUC (µM·h)
Number in µM·h, nothing else.

Field: example entries. Status: answers known.
| Compound | AUC [µM·h] |
| --- | --- |
| CCCC[C@@H]1NC[C@H](C(=O)N[C@H]2CSSC[C@@H](C(=O)N[C@@H](Cc3ccc(O)cc3)C(=O)N3C[C@H](C(N)=O)NC(=O)[C@@H]3CCCNC(=N)N)NC(=O)[C@H](CO)NC(=O)[C@H]([C@@H](C)CC)NC(=O)[C@H](CCCNC(=N)N)NC(=O)[C@H](CC(=O)O)NC(=O)[C@H](CCCC)NC(=O)[C@H](CCCN)NC(=O)CNC(=O)CNC(=O)[C@H](Cc3ccccc3)NC(=O)[C@H](Cc3c[nH]cn3)NC2=O)NC1=O [1-54] ({Piperazin2one(3S-Bu,6R-CO)}-CHFGG[Orn][Nle]DRISCY-X1; disulfide 1-12) | 0.277 |
| CCCC[C@@H]1NC[C@H](C(=O)N[C@H]2CSSC[C@@H](C(=O)N[C@@H](Cc3ccc(O)cc3)C(=O)N3C[C@H](C(N)=O)NC(=O)[C@@H]3CCCNC(=N)N)NC(=O)[C@H](CO)NC(=O)[C@H]([C@@H](C)CC)NC(=O)[C@@H](CCCNC(=N)N)NC(=O)[C@H](CC(=O)O)NC(=O)[C@H](CCCC)NC(=O)[C@H](CCCNC(=N)N)NC(=O)CNC(=O)CNC(=O)[C@H](Cc3ccccc3)NC(=O)[C@H](Cc3c[nH]cn3)NC2=O)NC1=O [1-45] ({Piperazin2one(3S-Bu,6R-CO)}-CHFGGR[Nle]D[dR]ISCY-X1; disulfide 1-12) | 0.85 |
| CCCC[C@@H]1NC(=O)[C@H](CCCNC(=N)N)NC(=O)CNC(=O)CNC(=O)[C@H](Cc2ccccc2)NC(=O)[C@H](Cc2c[nH]cn2)NC(=O)[C@@H](NC(=O)[C@H]2CN[C@@H](CC(C)C)C(=O)N2)CSSC[C@@H](C(=O)N[C@@H](Cc2ccc(O)cc2)C(=O)N2C[C@H](C(N)=O)NC(=O)[C@@H]2CCCNC(=N)N)NC(=O)[C@H](CO)NC(=O)[C@H]([C@@H](C)CC)NC(=O)[C@H](CCCNC(=N)N)NC(=O)[C@H](CC(=O)O)NC1=O [1-51] (X3-CHFGGR[Nle]DRISCY-X1; disulfide 1-12) | 0.19 |

Moving on to another compound below.
Please look up its AUC: CCCC[C@@H]1NC[C@H](C(=O)N[C@H]2CSSC[C@@H](C(=O)N[C@@H](Cc3ccc(O)cc3)C(=O)N3C[C@H](C(N)=O)NC(=O)[C@@H]3CCCNC(=N)N)NC(=O)[C@H](CO)NC(=O)[C@H]([C@@H](C)CC)NC(=O)[C@H](CCCNC(=N)N)NC(=O)[C@H](CC(=O)O)NC(=O)[C@H](CCCC)NC(=O)[C@H](CCCNC(=N)N)NC(=O)CNC(=O)CNC(=O)[C@H](Cc3ccccc3)NC(=O)[C@@H](Cc3c[nH]cn3)NC2=O)NC1=O [1-28] ({Piperazin2one(3S-Bu,6R-CO)}-C[dH]FGGR[Nle]DRISCY-X1; disulfide 1-12) 0.351

----------
Experimental conditions: rat, in vivo, iv, 2 mg/kg
Bridge positions count the residues as written; N and C are the ends. Square brackets hold non-standard residues; d marks the D form. Peptide text beside a SMILES is read from it. * marks the point of attachment. Piperazin2one(3S-Bu,6R-CO) = CCCC[C@@H]1NC[C@H](C(=O)*)NC1=O; X1 = N=C(N)NCCC[C@H]1C(=O)N[C@@H](C(N)=O)CN1*; dNle = CCCC[C@@H](N)C(=O)O
# Vd listing for each entry below
Number in L/kg, nothing else.

| Compound | Vd (L/kg) |
| --- | --- |
| CCCC[C@@H]1NC[C@H](C(=O)N[C@H]2CSSC[C@@H](C(=O)N[C@@H](Cc3ccc(O)cc3)C(=O)N3C[C@H](C(N)=O)NC(=O)[C@@H]3CCCNC(=N)N)NC(=O)[C@H](CO)NC(=O)[C@H]([C@@H](C)CC)NC(=O)[C@H](CCCNC(=N)N)NC(=O)[C@H](CC(=O)O)NC(=O)[C@@H](CCCC)NC(=O)[C@H](CCCNC(=N)N)NC(=O)CNC(=O)CNC(=O)[C@H](Cc3ccccc3)NC(=O)[C@H](Cc3c[nH]cn3)NC2=O)NC1=O [1-43] ({Piperazin2one(3S-Bu,6R-CO)}-CHFGGR[dNle]DRISCY-X1; disulfide 1-12) | 0.6 |

Moving on to another compound below.
Please look up its Vd: "CCCC[C@@H]1NC[C@H](C(=O)N[C@H]2CSSC[C@@H](C(=O)N[C@@H](Cc3ccc(O)cc3)C(=O)N3C[C@H](C(N)=O)NC(=O)[C@@H]3CCCNC(=N)N)NC(=O)[C@H](CO)NC(=O)[C@H]([C@@H](C)CC)NC(=O)[C@H](CCCNC(=N)N)NC(=O)[C@H](C)NC(=O)[C@H](CCCC)NC(=O)[C@H](CCCNC(=N)N)NC(=O)CNC(=O)CNC(=O)[C@H](Cc3ccccc3)NC(=O)[C@H](Cc3c[nH]cn3)NC2=O)NC1=O" 57

----------
Experimental conditions: rat, in vivo, iv
Bridge positions count the residues as written; N and C are the ends. Square brackets hold non-standard residues; d marks the D form. Peptide text beside a SMILES is read from it. * marks the point of attachment. Piperazin2one(3S-Bu,6R-CO) = CCCC[C@@H]1NC[C@H](C(=O)*)NC1=O; X1 = N=C(N)NCCC[C@H]1C(=O)N[C@@H](C(N)=O)CN1*; Nle = CCCC[C@H](N)C(=O)O
Property measured: clearance

Please look up its clearance: CCCC[C@@H]1NC[C@H](C(=O)N[C@H]2CSSC[C@@H](C(=O)N[C@H](Cc3ccc(O)cc3)C(=O)N3C[C@H](C(N)=O)NC(=O)[C@@H]3CCCNC(=N)N)NC(=O)[C@H](CO)NC(=O)[C@H]([C@@H](C)CC)NC(=O)[C@H](CCCNC(=N)N)NC(=O)[C@H](CC(=O)O)NC(=O)[C@H](CCCC)NC(=O)[C@H](CCCNC(=N)N)NC(=O)CNC(=O)CNC(=O)[C@H](Cc3ccccc3)NC(=O)[C@H](Cc3c[nH]cn3)NC2=O)NC1=O [1-53] ({Piperazin2one(3S-Bu,6R-CO)}-CHFGGR[Nle]DRISC[dY]-X1; disulfide 1-12) 40 mL/min/kg

----------
Experimental conditions: rat, in vivo, iv, 2 mg/kg
Bridge positions count the residues as written; N and C are the ends. Square brackets hold non-standard residues; d marks the D form. Peptide text beside a SMILES is read from it. * marks the point of attachment. Piperazin2one(3S-Bu,6R-CO) = CCCC[C@@H]1NC[C@H](C(=O)*)NC1=O; X1 = N=C(N)NCCC[C@H]1C(=O)N[C@@H](C(N)=O)CN1*; Nle = CCCC[C@H](N)C(=O)O
Property measured: clearance (mL/min/kg)
Number in mL/min/kg, nothing else.

| Molecule | Property measured | Display unit | Readout number |
| --- | --- | --- | --- |
| CCCC[C@@H]1NC[C@H](C(=O)N[C@H]2CSSC[C@@H](C(=O)N[C@@H](Cc3ccc(O)cc3)C(=O)N3C[C@H](C(N)=O)NC(=O)[C@@H]3CCCNC(=N)N)NC(=O)[C@H](CO)NC(=O)[C@H]([C@@H](C)CC)NC(=O)[C@H](C)NC(=O)[C@H](CC(=O)O)NC(=O)[C@H](CCCC)NC(=O)[C@H](C)NC(=O)CNC(=O)CNC(=O)[C@H](Cc3ccccc3)NC(=O)[C@H](Cc3c[nH]cn3)NC2=O)NC1=O [1-100] ({Piperazin2one(3S-Bu,6R-CO)}-CHFGGA[Nle]DAISCY-X1; disulfide 1-12) | clearance | mL/min/kg | 456 |

Moving on to another molecule below.
Please look up its clearance: CCCC[C@@H]1NC[C@H](C(=O)N[C@H]2CSSC[C@@H](C(=O)N[C@@H](Cc3ccc(O)cc3)C(=O)N3C[C@H](C(N)=O)NC(=O)[C@@H]3CCCNC(=N)N)NC(=O)[C@H](CO)NC(=O)[C@H]([C@@H](C)CC)NC(=O)[C@H](CCCNC(=N)N)NC(=O)[C@H](CC(=O)O)NC(=O)[C@H](CCCC)NC(=O)[C@H](CCCNC(=N)N)NC(=O)CNC(=O)CNC(=O)[C@@H](Cc3ccccc3)NC(=O)[C@H](Cc3c[nH]cn3)NC2=O)NC1=O [1-39] ({Piperazin2one(3S-Bu,6R-CO)}-CH[dF]GGR[Nle]DRISCY-X1; disulfide 1-12) 134
